// data source = PubChem BioAssay AID2060510

tested on: 439559-082-T-J2-PDC spheroids viability; experiment: Anticancer human tumor 439559-082-T-J2-PDC patient-derived colon adenocarcinoma cell line growth inhibition [GQUAD]; settings: second compound 0.0316 µM; first compound 1 µM; hits give low values
Reported viability, T/C values for a set of molecules
endpoint: viability, T/C (%)

{"molecule": "CC1COCCN1c1cc(-c2ccnn2C)c2ccnc(-c3ccn[nH]3)c2n1 (stereo not given) + Cc1cnc(CNC(=O)c2c(=O)c3ccc(N4CCCN(C)CC4)nc3n3c2sc2ccccc23)cn1", "recorded.number": 31.8}
{"molecule": "COc1ccc([C@@H](O)c2cc(-c3ncnc4cc(N5CCOCC5)ccc34)c(F)cc2Cl)nn1 + Cc1[nH]c2ccc(F)cc2c1-c1nc2c3cccnc3c3ncccc3c2[nH]1", "recorded.number": 98.1}
{"molecule": "C=CCn1c(=O)c2cnc(Nc3ccc(N4CCN(C)CC4)cc3)nc2n1-c1cccc(C(C)(C)O)n1 + Cc1cnc(CNC(=O)c2c(=O)c3ccc(N4CCCN(C)CC4)nc3n3c2sc2ccccc23)cn1", "recorded.number": 83.7}
{"molecule": "CC1COCCN1c1cc(C2(O)CC3CCC(C2)O3)c2cnn(-c3ccn[nH]3)c2n1 (stereo not given) + CN(C)c1ccc(Nc2c3ccc(NC(=O)CCN4CCCC4)cc3nc3cc(NC(=O)CCN4CCCC4)ccc23)cc1", "recorded.number": 49.8}
{"molecule": "O=C(c1cc(Cc2n[nH]c(=O)c3ccccc23)ccc1F)N1CCN(C(=O)C2CC2)CC1 + CN(C)c1ccc(Nc2c3ccc(NC(=O)CCN4CCCC4)cc3nc3cc(NC(=O)CCN4CCCC4)ccc23)cc1", "recorded.number": 99.6}
{"molecule": "C=CC(=O)N1CCN(c2nc(=O)n(-c3c(C)ccnc3C(C)C)c3nc(-c4c(O)cccc4F)c(F)cc23)C(C)C1 (stereo not given) + Cc1cnc(CNC(=O)c2c(=O)c3ccc(N4CCCN(C)CC4)nc3n3c2sc2ccccc23)cn1", "recorded.number": 110}
{"molecule": "COc1ccc([C@@H](O)c2cc(-c3ncnc4cc(N5CCOCC5)ccc34)c(F)cc2Cl)nn1 + CN(C)c1ccc(Nc2c3ccc(NC(=O)CCN4CCCC4)cc3nc3cc(NC(=O)CCN4CCCC4)ccc23)cc1", "recorded.number": 99.7}
{"molecule": "O=C(c1cc(Cc2n[nH]c(=O)c3ccccc23)ccc1F)N1CCN(C(=O)C2CC2)CC1 + Cc1cnc(CNC(=O)c2c(=O)c3ccc(N4CCCN(C)CC4)nc3n3c2sc2ccccc23)cn1", "recorded.number": 94}
{"molecule": "O=C(NO)c1cnc(N2CCN(S(=O)(=O)c3ccc4ccccc4c3)CC2)nc1 + CN(C)c1ccc(Nc2c3ccc(NC(=O)CCN4CCCC4)cc3nc3cc(NC(=O)CCN4CCCC4)ccc23)cc1", "recorded.number": 2.76}
{"molecule": "CC(=O)O[C@H]1C(=O)[C@@]2(C)[C@H]([C@H](OC(=O)c3ccccc3)[C@]3(O)C[C@H](OC(=O)[C@H](O)[C@@H](NC(=O)c4ccccc4)c4ccccc4)C(C)=C1C3(C)C)[C@]1(OC(C)=O)CO[C@@H]1C[C@@H]2O + Cc1[nH]c2ccc(F)cc2c1-c1nc2c3cccnc3c3ncccc3c2[nH]1", "recorded.number": 4.13}
{"molecule": "CC1COCCN1c1cc(-c2ccnn2C)c2ccnc(-c3ccn[nH]3)c2n1 (stereo not given) + Cc1[nH]c2ccc(F)cc2c1-c1nc2c3cccnc3c3ncccc3c2[nH]1", "recorded.number": 38.8}
{"molecule": "C#Cc1c(F)ccc2cc(O)cc(-c3ncc4c(N5CC6CCC(C5)N6)nc(OCC56CCCN5CC(F)C6)nc4c3F)c12 (stereo not given) + Cc1cnc(CNC(=O)c2c(=O)c3ccc(N4CCCN(C)CC4)nc3n3c2sc2ccccc23)cn1", "recorded.number": 62.7}
{"molecule": "CCCS(=O)(=O)Nc1ccc(F)c(C(=O)c2c[nH]c3ncc(-c4ccc(Cl)cc4)cc23)c1F + CN(C)c1ccc(Nc2c3ccc(NC(=O)CCN4CCCC4)cc3nc3cc(NC(=O)CCN4CCCC4)ccc23)cc1", "recorded.number": 92.4}
{"molecule": "C=CCn1c(=O)c2cnc(Nc3ccc(N4CCN(C)CC4)cc3)nc2n1-c1cccc(C(C)(C)O)n1 + CN(C)c1ccc(Nc2c3ccc(NC(=O)CCN4CCCC4)cc3nc3cc(NC(=O)CCN4CCCC4)ccc23)cc1", "recorded.number": 82.1}
{"molecule": "COc1ncnc(C2CC2)c1-c1ncc2cnn(Cc3ccc(-c4nc(C(F)(F)F)cn4C(C)C)cc3)c2n1 + Cc1cnc(CNC(=O)c2c(=O)c3ccc(N4CCCN(C)CC4)nc3n3c2sc2ccccc23)cn1", "recorded.number": 105}
{"molecule": "CC(C)n1c(=O)n(C)c2cnc3cc(F)c(-c4ccc(OCCCN5CCCCC5)nc4)cc3c21 + Cc1[nH]c2ccc(F)cc2c1-c1nc2c3cccnc3c3ncccc3c2[nH]1", "recorded.number": 125}
{"molecule": "CC(C)n1c(=O)n(C)c2cnc3cc(F)c(-c4ccc(OCCCN5CCCCC5)nc4)cc3c21 + Cc1cnc(CNC(=O)c2c(=O)c3ccc(N4CCCN(C)CC4)nc3n3c2sc2ccccc23)cn1", "recorded.number": 90.8}
{"molecule": "C=CC(=O)N1CCN(c2nc(=O)n(-c3c(C)ccnc3C(C)C)c3nc(-c4c(O)cccc4F)c(F)cc23)C(C)C1 (stereo not given) + Cc1[nH]c2ccc(F)cc2c1-c1nc2c3cccnc3c3ncccc3c2[nH]1", "recorded.number": 103}
{"molecule": "O=C(c1cc(Cc2n[nH]c(=O)c3ccccc23)ccc1F)N1CCN(C(=O)C2CC2)CC1 + Cc1[nH]c2ccc(F)cc2c1-c1nc2c3cccnc3c3ncccc3c2[nH]1", "recorded.number": 96.8}
{"molecule": "COc1cccc2c1C(=O)c1c(O)c3c(c(O)c1C2=O)CC(O)(C(=O)CO)CC3OC1CC(N)C(O)C(C)O1 (stereo not given) + Cc1cnc(CNC(=O)c2c(=O)c3ccc(N4CCCN(C)CC4)nc3n3c2sc2ccccc23)cn1", "recorded.number": 77.6}

----------
tested on: 439559-082-T-J2-PDC spheroids viability; assay: Anticancer human tumor 439559-082-T-J2-PDC cell line growth inhibition [GQUAD]; conditions: second compound 0.0316 µM; first compound 0.1 µM; hits give low values;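 also: spheroids exposed to the agents for 7 days before readout; percent of luminescence signal in DMSO vehicle wells taken as 100% viability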
viability, T/C overview

{"molecule": "COc1ccc([C@@H](O)c2cc(-c3ncnc4cc(N5CCOCC5)ccc34)c(F)cc2Cl)nn1 + Cc1[nH]c2ccc(F)cc2c1-c1nc2c3cccnc3c3ncccc3c2[nH]1", "viability, T/C [%]": 98}
{"molecule": "CC(=O)O[C@H]1C(=O)[C@@]2(C)[C@H]([C@H](OC(=O)c3ccccc3)[C@]3(O)C[C@H](OC(=O)[C@H](O)[C@@H](NC(=O)c4ccccc4)c4ccccc4)C(C)=C1C3(C)C)[C@]1(OC(C)=O)CO[C@@H]1C[C@@H]2O + CN(C)c1ccc(Nc2c3ccc(NC(=O)CCN4CCCC4)cc3nc3cc(NC(=O)CCN4CCCC4)ccc23)cc1", "viability, T/C [%]": 77.7}
{"molecule": "COc1cccc2c1C(=O)c1c(O)c3c(c(O)c1C2=O)CC(O)(C(=O)CO)CC3OC1CC(N)C(O)C(C)O1 (centres undefined) + CN(C)c1ccc(Nc2c3ccc(NC(=O)CCN4CCCC4)cc3nc3cc(NC(=O)CCN4CCCC4)ccc23)cc1", "viability, T/C [%]": 86.7}
{"molecule": "CC(=O)O[C@H]1C(=O)[C@@]2(C)[C@H]([C@H](OC(=O)c3ccccc3)[C@]3(O)C[C@H](OC(=O)[C@H](O)[C@@H](NC(=O)c4ccccc4)c4ccccc4)C(C)=C1C3(C)C)[C@]1(OC(C)=O)CO[C@@H]1C[C@@H]2O + Cc1cnc(CNC(=O)c2c(=O)c3ccc(N4CCCN(C)CC4)nc3n3c2sc2ccccc23)cn1", "viability, T/C [%]": 89.1}

----------
Tested on: 439559-082-T-J2-PDC spheroids viability
Assay: Anticancer human tumor 439559-082-T-J2-PDC cell line growth inhibition [GQUAD];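 also: spheroids exposed to the agents for 7 days before readout; percent of luminescence signal in DMSO vehicle wells taken as 100% viability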
Conditions: second compound 0.0316 µM; first compound 0.00999 µM; hits give low values
Description: DNA G-quadruplex Stabilizer Agents in Combinations in Complex Spheroids A high-throughput screen of multi-cell type tumor spheroids was designed to identify active combinations of DNA G-quadruplex stabilizer agents and targeted small molecules. […] Compounds. […] If the clinical Cmax for an agent had not been determined, the highest concentration tested was 10 microM. […]
# viability, T/C annotations

{"compound": "Cc1[nH]c2ccccc2c1CCNCc1ccc(/C=C/C(=O)NO)cc1 + Cc1cnc(CNC(=O)c2c(=O)c3ccc(N4CCCN(C)CC4)nc3n3c2sc2ccccc23)cn1", "viability, T/C, %": 99}
{"compound": "Cn1ncnc1[C@H]1c2n[nH]c(=O)c3cc(F)cc(c23)N[C@@H]1c1ccc(F)cc1 + Cc1cnc(CNC(=O)c2c(=O)c3ccc(N4CCCN(C)CC4)nc3n3c2sc2ccccc23)cn1", "viability, T/C, %": 102}
{"compound": "Cn1ncnc1[C@H]1c2n[nH]c(=O)c3cc(F)cc(c23)N[C@@H]1c1ccc(F)cc1 + Cc1[nH]c2ccc(F)cc2c1-c1nc2c3cccnc3c3ncccc3c2[nH]1", "viability, T/C, %": 97.2}
{"compound": "Cc1[nH]c2ccccc2c1CCNCc1ccc(/C=C/C(=O)NO)cc1 + Cc1[nH]c2ccc(F)cc2c1-c1nc2c3cccnc3c3ncccc3c2[nH]1", "viability, T/C, %": 92.6}
